Ref: patent US11186576B2

target: CDK7/CycH/MNAT1 (Homo sapiens (Human)); experiment: Biochemical assay for CDK7 (TR-FRET kinase assay); conditions: 10 μM compound; 60 min pre-incubation; 1 mM ATP; read-out: % inhibition @ 10 μM
Sequence (P50613 whole entry): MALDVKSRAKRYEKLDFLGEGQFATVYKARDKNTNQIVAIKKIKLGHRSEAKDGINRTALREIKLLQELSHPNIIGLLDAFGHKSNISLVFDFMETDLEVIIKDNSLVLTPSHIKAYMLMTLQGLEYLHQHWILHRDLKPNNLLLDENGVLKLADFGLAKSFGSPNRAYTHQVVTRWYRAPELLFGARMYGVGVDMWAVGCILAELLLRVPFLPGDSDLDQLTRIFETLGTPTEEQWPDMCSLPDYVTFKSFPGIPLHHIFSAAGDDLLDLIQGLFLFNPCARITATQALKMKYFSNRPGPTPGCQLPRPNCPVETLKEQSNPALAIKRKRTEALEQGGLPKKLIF
Sequence (P51946 whole entry partner): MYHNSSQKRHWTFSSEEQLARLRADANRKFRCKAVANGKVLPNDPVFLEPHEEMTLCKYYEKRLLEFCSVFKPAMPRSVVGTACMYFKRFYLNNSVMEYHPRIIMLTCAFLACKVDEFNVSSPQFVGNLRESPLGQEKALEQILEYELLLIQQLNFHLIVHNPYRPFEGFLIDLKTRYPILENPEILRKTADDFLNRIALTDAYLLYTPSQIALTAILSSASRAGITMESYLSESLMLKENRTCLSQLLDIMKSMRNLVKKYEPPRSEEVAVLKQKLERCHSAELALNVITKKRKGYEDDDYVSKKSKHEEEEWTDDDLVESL
Sequence (P51948 whole entry partner): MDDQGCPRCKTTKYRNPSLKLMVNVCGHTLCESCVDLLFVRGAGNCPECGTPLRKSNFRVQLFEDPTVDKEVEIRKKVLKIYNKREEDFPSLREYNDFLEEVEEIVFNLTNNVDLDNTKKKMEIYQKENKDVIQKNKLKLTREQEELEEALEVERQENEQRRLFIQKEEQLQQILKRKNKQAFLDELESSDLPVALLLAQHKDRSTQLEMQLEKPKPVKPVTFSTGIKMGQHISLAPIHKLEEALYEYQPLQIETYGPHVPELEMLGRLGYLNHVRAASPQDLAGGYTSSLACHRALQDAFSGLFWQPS
Measured inhibition at 10 µM, listed per entry.

[
  {
    "MOLECULE": "C=CC(=O)NC(C)(C)C(=O)Nc1cccc(CNc2nc(NC3CCOCC3)nc3c(C(C)C)cnn23)c1",
    "inhibition at 10 µM, %": 93
  },
  {
    "MOLECULE": "CC(C)c1cnn2c(NCc3ccc(F)c(NC(=O)C4CCCN(C(=O)/C=C/CN(C)C)C4)c3)nc(OC3CCN(C)CC3)nc12 (centres unmarked)",
    "inhibition at 10 µM, %": 96
  },
  {
    "MOLECULE": "C=CC(=O)N[C@H]1CC[C@@H](C(=O)Nc2cccc(CNc3nc(OC4CCOC4)nc4c(C(C)C)cnn34)c2)CC1 (some centres unmarked)",
    "inhibition at 10 µM, %": 82
  },
  {
    "MOLECULE": "C=CC(=O)N1CCC1C(=O)Nc1cccc(CNc2nc(NC3CCOCC3)nc3c(C(C)C)cnn23)c1 (centres unmarked)",
    "inhibition at 10 µM, %": 98
  },
  {
    "MOLECULE": "CC(C)c1cnn2c(NCc3cccc(NC(=O)C4CCCCN4C(=O)/C=C/CN(C)C)c3)nc(NC3CCOCC3)nc12 (centres unmarked)",
    "inhibition at 10 µM, %": 99
  },
  {
    "MOLECULE": "C=CC(=O)N[C@H]1CC[C@@H](C(=O)Nc2cccc(CNc3nc(OC4CCN(C)CC4)nc4c(C5CC5)cnn34)c2)CC1",
    "inhibition at 10 µM, %": 92
  },
  {
    "MOLECULE": "C=CC(=O)N1CCCC(C(=O)Nc2cccc(CNc3nc(OC4CCN(C)CC4)nc4c(C(C)C)cnn34)c2)C1 (centres unmarked)",
    "inhibition at 10 µM, %": 92
  },
  {
    "MOLECULE": "C=CC(=O)NC1CCC(C(=O)Nc2cccc(Nc3nc(OC4CCN(C)CC4)nc4c(C(C)C)cnn34)c2)CC1 (centres unmarked)",
    "inhibition at 10 µM, %": 80
  },
  {
    "MOLECULE": "C=CC(=O)N1CCCC(C(=O)Nc2ccc(CNc3nc(OC4CCN(C)CC4)nc4c(C(C)C)cnn34)c[n+]2[O-])C1 (centres unmarked)",
    "inhibition at 10 µM, %": 93
  },
  {
    "MOLECULE": "C=CC(=O)N1CCC(C(=O)Nc2ccc(F)c(CNc3nc(NC4CCOCC4)nc4c(C(C)C)cnn34)c2)C1 (centres unmarked)",
    "inhibition at 10 µM, %": 91
  },
  {
    "MOLECULE": "C=CC(=O)N[C@H]1CC[C@@H](C(=O)Nc2cccc(CNc3nc(NC4CCOCC4)nc4c(C(C)C)cnn34)c2)CC1",
    "inhibition at 10 µM, %": 91
  },
  {
    "MOLECULE": "C=CC(=O)N1CCOCC1C(=O)Nc1cncc(CNc2nc(NC3CCOCC3)nc3c(C(C)C)cnn23)c1 (centres unmarked)",
    "inhibition at 10 µM, %": 99
  },
  {
    "MOLECULE": "C=CC(=O)N1CCC(C(=O)Nc2cccc(CNc3nc(OC4CCNCC4)nc4c(C(C)C)cnn34)c2)CC1",
    "inhibition at 10 µM, %": 91
  },
  {
    "MOLECULE": "C=CC(=O)N1CCC(C(=O)Nc2cccc(CNc3nc(NC4CCOCC4)nc4c(C(C)C)cnn34)c2)C1 (centres unmarked) [Compound 4]",
    "inhibition at 10 µM, %": 93
  }
]
